Can you tell me IC50 for the items I'm about to list?
subject of test: full-length human PLD2 (Homo sapiens (Human))
test summary: Evaluation of human PLD2 enzyme inhibitory activity (Amplex Red / choline oxidase fluorescence)
Type: biochemical
conditions: full-length human PLD2 enzyme; read-out: PLD2 IC50
Numbers only, in nM.

CNC(=O)C(=O)N[C@@H](C)C[C@H]1CC[C@]2(CC1)OC(=O)NN=C2c1ccc(F)cc1 [Example 6] : 120
CNC(=O)C(=O)N[C@@H](C)CN1CC[C@@]2(C[C@H]1C)OC(=O)NN=C2c1ccc(C#N)cc1Cl [Example 233] : 1800

Give a short answer stating reported IC50 for CNC(=O)C(=O)NC[C@@H](C)N1CCC2(CC1)OC(=O)NN=C2c1ccc(C#N)cc1Br [Example 330] .
26

---

Can you tell me IC50 for the items I'm about to list?
subject of test: UniProt:O14939
test summary: Evaluation of human PLD2 enzyme inhibitory activity (Amplex Red / choline oxidase fluorescence)
Format: biochemical
conditions: full-length human PLD2 enzyme; read-out: PLD2 IC50
Procedure: A method for measuring human PLD2 enzyme inhibitory activity using an enzyme in which a FLAG-tag is added to the N-terminus of full-length human PLD2 (1-933 amino acids) is shown below. DNA fragment in which a FLAG-tag sequence is added to the 5′-end of full-length human PLD2 was amplified by PCR method, using commercially available human PLD2 gene (Promega KK) as a template. […]
Give bare numbers, in nM.

CNC(=O)C(=O)N[C@@H](C)C[C@H]1CC[C@]2(CC1)OC(=O)NN=C2c1cnc(C(F)(F)F)cc1C [Example 174] : 17
C[C@@H](CN1CCC2(CC1)OC(=O)NN=C2c1ccc(F)cc1Br)NC(=O)NC1CC1 [Example 189] : 140
CNC(=O)C(=O)N[C@@H](C)C[C@H]1CC[C@]2(CC1)OC(=O)NN=C2c1ccc(-c2ccccc2)cc1-c1ccccc1 [Example 73] : 15
CNC(=O)C(=O)N[C@@H](C)CN1CC[C@]2(C[C@@H]1C)OC(=O)NN=C2c1ccc(C#N)cc1Cl [Example 280] : 316

Turning now to a further compound:
Give a short answer stating reported IC50 for CC(=O)C(=O)N[C@@H](C)C[C@H]1CC[C@]2(CC1)OC(=O)NN=C2c1ccc(F)cc1Br [Example 30] .
153

---

Can you tell me pIC50 for the items I'm about to list?
subject of test: UniProt:Q13393
test summary: Evaluation of human PLD1 enzyme inhibitory activity (Amplex Red / choline oxidase fluorescence)
Assay type: biochemical
conditions: full-length human PLD1 enzyme; read-out: PLD1 IC50
Description: A method for measuring human PLD1 enzyme inhibitory activity using an enzyme in which a FLAG-tag is added to the N-terminus of full-length human PLD1 (1-1036 amino acids) is shown below. DNA fragment in which a FLAG-tag sequence is added to the 5′-end of full-length human PLD1 was amplified by PCR method, using commercially available human PLD1 gene (Promega KK) as a template. […]
Answers are plain numbers, as −log10 of the molar value.

Check out these entries, answers already filled in.
COc1cc(C)c(C2=NNC(=O)O[C@]23CC[C@@H](C[C@H](C)NC(=O)NCc2ccccn2)CC3)cn1 [Example 261] : 6.77
CC(=O)C(=O)N[C@@H](C)C[C@H]1CC[C@]2(CC1)OC(=O)NN=C2c1ccc(F)cc1Br [Example 30] : 6.91
Cc1cc(C(=O)N[C@@H](C)[C@H](C)N2CCC3(CC2)OC(=O)NN=C3c2ccc(F)cc2Br)[nH]n1 [Example 288] : 7.59
CNC(=O)C(=O)N[C@@H](C)C[C@H]1CC[C@]2(CC1)OC(=O)NN=C2c1cc(OCC(C)(C)O)ccc1Br [Example 2-014] : 7.66

Give measured pIC50 for every item shown.
1. CNC(=O)C(=O)N[C@@H](C)C[C@H]1CC[C@]2(CC1)OC(=O)NN=C2c1cnc(N2CC3CCC(C2)O3)cc1C [Example 269]
2. CNC(=O)C(=O)N[C@@H](C)C[C@H]1CC[C@]2(CC1)OC(=O)NN=C2c1cnc(N2CCC(F)(F)C2)cc1C [Example 248]
3. Cc1cc(C(=O)NC[C@@H](C)N2CCC3(CC2)OC(=O)NN=C3c2ccc(C#N)cc2Br)[nH]n1 [Example 332]

7.74
7.77
5.59

---

subject of test: full-length human PLD2 (Homo sapiens (Human), UniProt O14939)
Sequence (O14939 whole entry): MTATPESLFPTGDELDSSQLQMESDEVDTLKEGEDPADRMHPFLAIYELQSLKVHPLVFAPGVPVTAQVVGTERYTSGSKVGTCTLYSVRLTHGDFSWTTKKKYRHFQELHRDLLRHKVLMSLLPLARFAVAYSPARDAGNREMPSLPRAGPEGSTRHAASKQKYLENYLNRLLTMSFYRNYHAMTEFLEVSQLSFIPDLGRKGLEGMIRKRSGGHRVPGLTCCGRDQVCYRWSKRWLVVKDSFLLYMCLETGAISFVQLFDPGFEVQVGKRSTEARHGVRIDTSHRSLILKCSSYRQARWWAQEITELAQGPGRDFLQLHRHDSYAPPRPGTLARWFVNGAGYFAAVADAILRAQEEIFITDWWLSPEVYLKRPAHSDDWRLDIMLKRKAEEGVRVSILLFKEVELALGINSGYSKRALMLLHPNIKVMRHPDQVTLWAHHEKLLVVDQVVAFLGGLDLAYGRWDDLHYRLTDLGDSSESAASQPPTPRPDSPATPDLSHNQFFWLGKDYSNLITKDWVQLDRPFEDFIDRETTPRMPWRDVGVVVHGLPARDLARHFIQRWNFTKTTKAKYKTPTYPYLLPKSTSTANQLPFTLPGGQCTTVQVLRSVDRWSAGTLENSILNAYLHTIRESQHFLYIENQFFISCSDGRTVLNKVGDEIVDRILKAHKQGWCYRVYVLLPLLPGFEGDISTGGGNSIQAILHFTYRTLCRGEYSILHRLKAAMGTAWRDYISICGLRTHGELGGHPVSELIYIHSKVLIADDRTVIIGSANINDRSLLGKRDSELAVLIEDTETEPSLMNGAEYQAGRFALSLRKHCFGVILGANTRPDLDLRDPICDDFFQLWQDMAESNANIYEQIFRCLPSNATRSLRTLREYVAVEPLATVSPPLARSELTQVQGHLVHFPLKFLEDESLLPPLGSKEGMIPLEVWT
test summary: Evaluation of human PLD2 enzyme inhibitory activity (Amplex Red / choline oxidase fluorescence)
Assay type: biochemical
conditions: full-length human PLD2 enzyme; read-out: PLD2 IC50
measured property: IC50 (nM)
Give bare numbers, in nM.

Check out these entries, answers already filled in.
CNC(=O)C(=O)N[C@@H](C)CN1CCC2(CC1)OC(=O)NN=C2c1cc(C(C)(C)O)ccc1Br : 10
Cc1cc(C(=O)N[C@@H](C)CN2CCC3(CC2)OC(=O)NN=C3c2ccc(C#N)cc2Cl)[nH]n1 : 20
C[C@@H](CN1CCC2(CC1)OC(=O)NN=C2c1ccc(C#N)cc1Br)NC(=O)c1cn(C)cn1 : 11
Cc1cc(C(=O)N[C@@H](C)C[C@H]2CC[C@]3(CC2)OC(=O)NN=C3c2ccccc2Br)[nH]n1 : 13
CNC(=O)C(=O)N[C@@H](C)C[C@H]1CC[C@]2(CC1)OC(=O)NN=C2c1cnccc1C : 20
Cc1cc(F)ccc1C1=NNC(=O)O[C@]12CC[C@@H](C[C@H](C)NC(=O)N1CCCC1)CC2 : 170
Cc1cc(C(=O)N[C@@H](C)CN2CCC3(CC2)OC(=O)NN=C3c2ccc(S(C)(=O)=O)cc2Cl)[nH]n1 : 60
CNC(=O)C(=O)N[C@@H](C)C[C@H]1CC[C@]2(CC1)OC(=O)NN=C2c1ccc(F)cc1C(C)C : 31

Give a short answer stating reported IC50 for C[C@@H](C[C@H]1CC[C@]2(CC1)OC(=O)NN=C2c1ccc(F)cc1Br)NC(=O)C1CC1c1ccccc1 (single isomer, unassigned) [Example 38] .
88

---

subject of test: full-length human PLD1 (Homo sapiens (Human), UniProt Q13393)
Sequence (Q13393 other isoform, or with tags, fused parts or gaps): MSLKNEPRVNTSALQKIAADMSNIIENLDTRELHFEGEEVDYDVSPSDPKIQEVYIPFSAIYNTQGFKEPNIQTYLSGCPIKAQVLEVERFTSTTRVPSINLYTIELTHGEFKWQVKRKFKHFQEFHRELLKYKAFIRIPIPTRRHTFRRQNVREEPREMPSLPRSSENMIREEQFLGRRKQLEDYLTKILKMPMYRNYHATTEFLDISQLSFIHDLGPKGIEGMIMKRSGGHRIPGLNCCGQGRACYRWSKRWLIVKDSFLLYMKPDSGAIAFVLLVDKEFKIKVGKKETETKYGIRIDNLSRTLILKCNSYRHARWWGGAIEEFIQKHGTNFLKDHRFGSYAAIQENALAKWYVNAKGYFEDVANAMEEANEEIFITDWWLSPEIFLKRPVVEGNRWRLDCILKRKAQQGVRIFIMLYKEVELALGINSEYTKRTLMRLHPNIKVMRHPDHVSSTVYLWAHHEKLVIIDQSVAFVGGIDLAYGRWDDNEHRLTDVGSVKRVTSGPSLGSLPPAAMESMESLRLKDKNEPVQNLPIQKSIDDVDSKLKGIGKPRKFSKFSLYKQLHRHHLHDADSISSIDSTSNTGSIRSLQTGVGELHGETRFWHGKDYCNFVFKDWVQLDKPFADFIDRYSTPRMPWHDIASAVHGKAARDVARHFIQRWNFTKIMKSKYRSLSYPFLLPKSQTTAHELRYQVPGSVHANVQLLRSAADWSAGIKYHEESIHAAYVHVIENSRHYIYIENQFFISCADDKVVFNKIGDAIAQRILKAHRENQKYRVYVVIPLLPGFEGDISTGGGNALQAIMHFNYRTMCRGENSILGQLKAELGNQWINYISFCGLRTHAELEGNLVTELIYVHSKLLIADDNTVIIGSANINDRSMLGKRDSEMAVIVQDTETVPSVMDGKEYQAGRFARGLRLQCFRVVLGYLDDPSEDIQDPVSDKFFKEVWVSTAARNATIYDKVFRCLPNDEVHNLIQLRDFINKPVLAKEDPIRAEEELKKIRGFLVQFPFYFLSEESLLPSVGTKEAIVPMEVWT
test summary: Evaluation of human PLD1 enzyme inhibitory activity (Amplex Red / choline oxidase fluorescence)
Assay type: biochemical
conditions: full-length human PLD1 enzyme; read-out: PLD1 IC50
Can you tell me IC50 for the items I'm about to list?
One number for each entry, in nM.

Check out these entries, answers already filled in.
Cc1cc(C(=O)N[C@@H](C)CC2CC[C@]3(C[C@@H]2F)OC(=O)NN=C3c2ccc(F)cc2Br)[nH]n1 (stereo partly drawn) : 14
Cc1cc(C(=O)N[C@@H](C)C[C@]2(O)CC[C@]3(CC2)OC(=O)NN=C3c2ccc(F)cc2Br)[nH]n1 : 3880
C[C@@H](CN1CCC2(CC1)OC(=O)NN=C2c1cc(C#N)ccc1Br)NC(=O)/C=C/C(F)(F)F : 38
C[C@@H](C[C@H]1CC[C@]2(CC1)OC(=O)NN=C2c1ccc(F)cc1Br)NC(=O)N1CCOC2(CC2)C1 : 43
CNC(=O)C(=O)N[C@@H](C)C[C@H]1CC[C@]2(CC1)OC(=O)NN=C2c1cnc(N2C[C@@H]3C[C@H]2CO3)cc1Cl : 19
CONC(=O)N[C@@H](C)C[C@H]1CC[C@]2(CC1)OC(=O)NN=C2c1ccc(F)cc1I : 45
CNC(=O)C(=O)N[C@@H](C)CN1CCC2(CC1)OC(=O)NN=C2c1ncccc1Br : 45
C[C@@H](CN1CCC2(CC1)OC(=O)NN=C2c1ccc(C#N)cc1Br)NC(=O)C(=O)NC1CC1 : 27

Give measured IC50 for every item shown.
1. CNC1(C(=O)N[C@@H](C)C[C@H]2CC[C@]3(CC2)OC(=O)NN=C3c2ccc(F)cc2Br)COC1
2. C[C@@H](C[C@H]1CC[C@]2(CC1)OC(=O)NN=C2c1cccc(C#N)c1Br)NC(=O)C(=O)NC1CC1
3. C[C@@H](C[C@H]1CC[C@]2(CC1)OC(=O)NN=C2c1cn(C)nc1I)NC(=O)c1cc(Cl)no1
4. C[C@@H](CN1CCC2(CC1)OC(=O)NN=C2c1cc(C#N)ccc1Br)NC(=O)/C=C/C(=O)ON1C(=O)CCC1=O
5. Cc1cccnc1C1=NNC(=O)O[C@]12CC[C@@H](C[C@H](C)NC(=O)c1cc3ccccc3o1)CC2

638
46
24
3020
12

Give measured IC50 for every item shown.
1. COC(=O)N[C@@H](C)C[C@H]1CC[C@]2(CC1)OC(=O)NN=C2c1ccc(F)cc1C
2. CNC(=O)C(=O)N[C@@H](C)CN1CCC2(CC1)OC(=O)NN=C2c1ccc(C#N)cc1Cl
3. CNC(=O)/C=C/C(=O)N[C@@H](C)CN1CCC2(CC1)OC(=O)NN=C2c1cc(C#N)ccc1Br
4. CNC(=O)C(=O)N[C@@H](C)C[C@H]1CC[C@]2(CC1)OC(=O)NN=C2c1cnc(N2CCCCC2)cc1C

[236, 56, 148, 19]

Give measured IC50 for every item shown.
1. C[C@@H](C[C@H]1CC[C@]2(CC1)OC(=O)NN=C2c1ccc(F)cc1)NC(=O)c1cc2cc(F)ccc2[nH]1
2. CNC(=O)C(=O)N[C@@H](C)C[C@H]1CC[C@]2(CC1)OC(=O)NN=C2c1cnc(N2CC3(COC3)C2)cc1C
3. COc1cc(C)c(C2=NNC(=O)O[C@]23CC[C@@H](C[C@H](C)NC(=O)N2CCn4nccc4C2)CC3)cn1
4. COc1cc(C)c(C2=NNC(=O)O[C@]23CC[C@@H](C[C@H](C)NC(=O)N2CCn4c(nnc4C(F)(F)F)C2)CC3)cn1

1. 36
2. 38
3. 34
4. 1450
